Values from patent EP2881391A1

Biological target: human GnRH receptor (Homo sapiens, UniProt P30968)
Construct: line established by Prof; Thomas Gudermann
Sequence (P30968 1-328): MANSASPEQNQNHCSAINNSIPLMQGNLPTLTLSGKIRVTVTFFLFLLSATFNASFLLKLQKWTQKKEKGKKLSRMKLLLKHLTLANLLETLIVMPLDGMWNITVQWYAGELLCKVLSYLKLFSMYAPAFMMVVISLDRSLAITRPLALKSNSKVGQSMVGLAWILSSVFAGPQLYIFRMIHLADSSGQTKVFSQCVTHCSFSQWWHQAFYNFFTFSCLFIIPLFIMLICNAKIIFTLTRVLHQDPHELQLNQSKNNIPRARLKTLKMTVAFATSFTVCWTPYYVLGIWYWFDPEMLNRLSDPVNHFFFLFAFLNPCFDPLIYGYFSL
Assay: IP-One HTRF assay (inhibition of GnRH-R activation by buserelin)
Conditions: IP-One HTRF assay with buserelin (at EC80) stimulation; CHO cells stably expressing human GnRH receptor; tested 20 µM to 1 nM; read-out: Potency IC50
Parameter: IC50. Scope: all listed entries.
result.type: IC50

>>> df
                                   compound  observed
0  O=C(O)c1cccc(S(=O)(=O)N2c3ccc(C(=O)Nc4ccon4)cc3C3(CCC(O)(C(F)(F)F)CC3)C2C2CC2)c1 (stereo not drawn) [Example 48]   6710 nM
1  CC1(O)CCC2(CC1)c1cc(C(=O)NCc3ccccc3Cl)ccc1N(S(=O)(=O)c1ccc(F)cc1)C2C1CC1 (stereo not drawn) [Example 4]   73.3 nM
2  O=C1CCC2(CC1)c1cc(C(=O)NCc3ccccc3Cl)ccc1N(S(=O)(=O)c1ccc(F)cc1)C2C1CC1 (single isomer, unassigned) [Example 3-1]   41.3 nM

---

Molecular target: human GnRH receptor (Homo sapiens, UniProt P30968)
Construct: line established by Prof; Thomas Gudermann
Sequence (P30968 1-328): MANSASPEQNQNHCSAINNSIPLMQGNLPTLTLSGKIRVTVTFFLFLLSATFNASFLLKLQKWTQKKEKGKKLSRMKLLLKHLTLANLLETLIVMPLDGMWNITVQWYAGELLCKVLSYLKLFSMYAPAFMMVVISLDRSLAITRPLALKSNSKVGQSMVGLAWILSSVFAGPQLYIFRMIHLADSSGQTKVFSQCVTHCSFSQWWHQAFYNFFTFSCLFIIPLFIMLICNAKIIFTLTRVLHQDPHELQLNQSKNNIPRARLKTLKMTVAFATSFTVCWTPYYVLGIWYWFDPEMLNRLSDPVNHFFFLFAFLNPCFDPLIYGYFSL
Assay: IP-One HTRF assay (inhibition of GnRH-R activation by buserelin)
Conditions: IP-One HTRF assay with buserelin (at EC80) stimulation; CHO cells stably expressing human GnRH receptor; tested 20 µM to 1 nM; read-out: Potency IC50
pIC50: −log10 of the molar value.
Would you mind labelling by pIC50? At or over 6 is True, under is False.

>>> print(df.to_string())
                                   molecule                           target_of_assay  class_name
0  COC(=O)c1cccc(NC(=O)c2ccc3c(c2)C2(CCC(O)(C(F)(F)F)CC2)C(CC=C(C)C)N3S(=O)(=O)c2ccc(F)cc2)c1 (centres unmarked)  human GnRH receptor (Homo sapiens, UniProt P30968)        True
1  O=C(NCc1ncc(F)cc1Cl)c1ccc2c(c1)C1(CCC(O)(C(F)(F)F)CC1)C(C1CC1)N2S(=O)(=O)c1ccc(F)cc1 (centres unmarked)  human GnRH receptor (Homo sapiens, UniProt P30968)        True
2  O=C(NCc1ncccc1C(F)(F)F)c1ccc2c(c1)C1(CCC(O)(C(F)(F)F)CC1)C(C1CC1)N2S(=O)(=O)c1ccc(F)cc1 (centres unmarked) [Example 65]  human GnRH receptor (Homo sapiens, UniProt P30968)        True
3  COc1cccc(S(=O)(=O)N2c3ccc(C(=O)NCC4CCCCC4)cc3C3(CCC(O)(C(F)(F)F)CC3)C2C2CC2)c1 (centres unmarked)  human GnRH receptor (Homo sapiens, UniProt P30968)       False
4  O=C1CCC2(CC1)c1cc(C(=O)NCc3ncc(C(F)(F)F)cc3Cl)ccc1N(S(=O)(=O)c1ccc(F)cc1)C2C1CC1 (centres unmarked)  human GnRH receptor (Homo sapiens, UniProt P30968)        True
